Biological target: T1, human PD-L1 expressed on 300.19 cells (human, UniProt Q9NZQ7 19-290)
T1 construct: whole, on cells; also called huPD-L1; PD-L1-expressing 300.19 cells
T1 sequence (Q9NZQ7 19-290): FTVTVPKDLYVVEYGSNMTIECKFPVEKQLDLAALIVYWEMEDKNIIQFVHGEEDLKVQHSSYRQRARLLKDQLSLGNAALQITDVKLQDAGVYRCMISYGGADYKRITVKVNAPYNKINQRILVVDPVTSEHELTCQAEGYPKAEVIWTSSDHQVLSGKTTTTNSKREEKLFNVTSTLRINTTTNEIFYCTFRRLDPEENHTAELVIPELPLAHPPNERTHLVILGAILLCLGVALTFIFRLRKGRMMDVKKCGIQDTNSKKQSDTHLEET
Assay: competition FACS against Alexa 488-labeled murine BAP058 on PD-L1-expressing 300.19 cells
Method: Incubations with the mAb mixtures having different concentration ratios of test mAb to labeled mAb was at 4° C. for 30 min. Bound labeled murine mAb was then quantified using a FACS machine. The experiment was performed twice.
readout_kind: Comp. binding (ratio conc. test mAb / conc. labelled murine BAP058 at the IC50)

[
  {
    "binder": "BAP058-hum03 (antibody, human IgG4 S228P, kappa, V domains shown, Humanized IgG4(S228P)/human kappa mAb expressed in CHO cells) VH: EVQLVQSGAEVKKPGATVKISCKVSGYTFTSYWMYWVRQATGQGLEWMGRIDPNSGSTKYNEKFKNRVTITADKSTSTAYMELSSLRSEDTAVYYCARDYRKGLYAMDYWGQGTTVTVSS VL: EIVLTQSPDFQSVTPKEKVTITCKASQDVGTAVAWYLQKPGQSPQLLIYWASTRHTGVPDRFSGSGSGTDFTLKISRVEAEDVGVYYCQQYNSYPLTFGQGTKVEIKR",
    "reported": 1.87
  },
  {
    "binder": "BAP058-hum13 (antibody, human IgG4 S228P, kappa, V domains shown, Humanized IgG4(S228P)/human kappa mAb expressed in CHO cells) VH: EVQLVQSGAEVKKPGATVKISCKVSGYTFTSYWMYWVRQARGQRLEWIGRIDPNSGSTKYNEKFKNRFTISRDNSKNTLYLQMNSLRAEDTAVYYCARDYRKGLYAMDYWGQGTTVTVSS VL: AIQLTQSPSSLSASVGDRVTITCKASQDVGTAVAWYLQKPGQSPQLLIYWASTRHTGVPSRFSGSGSGTDFTFTISSLEAEDAATYYCQQYNSYPLTFGQGTKVEIKR",
    "reported": 2.91
  },
  {
    "binder": "BAP058-hum07 (antibody, human IgG4 S228P, kappa, V domains shown, Humanized IgG4(S228P)/human kappa mAb expressed in CHO cells) VH: QVQLVQSGAEVKKPGASVKVSCKASGYTFTSYWMYWIRQSPSRGLEWLGRIDPNSGSTKYNEKFKNRFTISRDDSKNTAYLQMNSLKTEDTAVYYCARDYRKGLYAMDYWGQGTTVTVSS VL: EIVLTQSPATLSLSPGERATLSCKASQDVGTAVAWYLQKPGQSPQLLIYWASTRHTGIPPRFSGSGYGTDFTLTINNIESEDAAYYFCQQYNSYPLTFGQGTKVEIKR",
    "reported": 1.8
  },
  {
    "binder": "BAP058-hum01 (antibody, human IgG4 S228P, kappa, V domains shown, Humanized IgG4(S228P)/human kappa mAb expressed in CHO cells) VH: QVQLVQSGAEVKKPGASVKVSCKASGYTFTSYWMYWVRQATGQGLEWMGRIDPNSGSTKYNEKFKNRFTISRDDSKNTAYLQMNSLKTEDTAVYYCARDYRKGLYAMDYWGQGTTVTVSS VL: DIVMTQTPLSLPVTPGEPASISCKASQDVGTAVAWYLQKPGQSPQLLIYWASTRHTGIPARFSGSGSGTEFTLTISSLQSEDFAVYYCQQYNSYPLTFGQGTKVEIKR",
    "reported": 2.56
  },
  {
    "binder": "BAP058-hum15 (antibody, human IgG4 S228P, kappa, V domains shown, Humanized IgG4(S228P)/human kappa mAb expressed in CHO cells) VH: EVQLVQSGAEVKKPGESLRISCKGSGYTFTSYWMYWIRQPPGKGLEWIGRIDPNSGSTKYNEKFKNRVTITADKSTSTAYMELSSLRSEDTAVYYCARDYRKGLYAMDYWGQGTTVTVSS VL: EIVLTQSPDFQSVTPKEKVTITCKASQDVGTAVAWYQQKPGQAPRLLIYWASTRHTGVPSRFSGSGSGTEFTLTISSLQPDDFATYYCQQYNSYPLTFGQGTKVEIKR",
    "reported": 4.64
  },
  {
    "binder": "BAP058-hum09 (antibody, human IgG4 S228P, kappa, V domains shown, Humanized IgG4(S228P)/human kappa mAb expressed in CHO cells) VH: EVQLVQSGAEVKKPGESLRISCKGSGYTFTSYWMYWIRQPPGKGLEWIGRIDPNSGSTKYNEKFKNRVTITADKSTSTAYMELSSLRSEDTAVYYCARDYRKGLYAMDYWGQGTTVTVSS VL: DIVMTQTPLSLPVTPGEPASISCKASQDVGTAVAWYLQKPGQSPQLLIYWASTRHTGIPARFSGSGSGTEFTLTISSLQSEDFAVYYCQQYNSYPLTFGQGTKVEIKR",
    "reported": 1.96
  },
  {
    "binder": "BAP058-hum14 (antibody, human IgG4 S228P, kappa, V domains shown, Humanized IgG4(S228P)/human kappa mAb expressed in CHO cells) VH: QVQLVQSGAEVKKPGASVKVSCKASGYTFTSYWMYWVRQATGQGLEWMGRIDPNSGSTKYNEKFKNRFTISRDDSKNTAYLQMNSLKTEDTAVYYCARDYRKGLYAMDYWGQGTTVTVSS VL: EIVLTQSPDFQSVTPKEKVTITCKASQDVGTAVAWYQQKPGQAPRLLIYWASTRHTGVPSRFSGSGSGTEFTLTISSLQPDDFATYYCQQYNSYPLTFGQGTKVEIKR",
    "reported": 4.59
  }
]

Cited source: patent US20160108123A1
